Test system: Staphylococcus aureus
assay remarks: Antibacterial activity against Staphylococcus aureus after 18 hrs by […]
Format: functional
readout label: MIC (µg/mL)

> print(dat)
                                   molecule  readout.label  unit.abbrev  reported.value
1  Cc1cccc(NC(=S)N/N=C2\CC[C@@]3(C)C(=CC[C@H]4[C@@H]5CC[C@H]([C@H](C)CCCC(C)C)[C@@]5(C)CC[C@@H]43)C2)c1            MIC        µg/mL             128
2  Cc1ccccc1NC(=S)N/N=C1\CC[C@@]2(C)C(=CC[C@H]3[C@@H]4CC[C@H]([C@H](C)CCCC(C)C)[C@@]4(C)CC[C@@H]32)C1            MIC        µg/mL              64
3  Cc1ccc(NC(=S)N/N=C2\CC[C@@]3(C)C(=CC[C@H]4[C@@H]5CC[C@H]([C@H](C)CCCC(C)C)[C@@]5(C)CC[C@@H]43)C2)cc1            MIC        µg/mL             256
4  CC1(C)S[C@@H]2[C@H](NC(=O)[C@H](N)c3ccc(O)cc3)C(=O)N2[C@H]1C(=O)O [AMOXICILLIN]            MIC        µg/mL              32
